As shown below, each of these compounds has a reported melting point value.

O=C(c1ccc(C2CCCCC2)cc1)N1Cc2cccn2Cc2ccccc21 [Example 4]: 127 to 129 °C
C/C(=N\C(=O)c1ccc2n1Cc1ccccc1N(C(=O)c1ccc(C3CCCCC3)cc1)C2)N(C)C [Example 18]: 128 to 131 °C
CC(C)(C)c1ccc(C(=O)c2ccc3n2Cc2ccccc2N(C(=O)c2ccc(C4CCCCC4)cc2)C3)cc1 [Example 5]: 143 to 145 °C

// lookup melting point for CN1CCCN(C(=O)c2ccc3n2Cc2ccccc2N(C(=O)c2ccc(C4CCCCC4)cc2)C3)CC1 [Example 30]
133 to 136 °C

====

Measured inhibition at 0.1 µM accompanies every entry in the list below.
molecular target: UniProt:P37288; assay: Vasopressin binding in CHO cell membranes expressing human vasopressin V1a subtype receptors; settings: 100 nM, [3H]Manning ligand
# answer = value followed by unit

These solved cases illustrate the format of a correct answer.
CC(C)(C)c1ccc(C(=O)c2ccc3n2Cc2ccccc2N(C(=O)c2ccc(C4CCCCC4)cc2)C3)cc1 [Example 5]: 3%
O=C(NCCCn1ccnc1)c1ccc2n1Cc1ccccc1N(C(=O)c1ccc(C3CCCCC3)cc1)C2 [Example 36]: 3%
O=C(c1ccc(C2CCCCC2)cc1)N1Cc2ccc(C(=O)C(Cl)(Cl)Cl)n2Cc2ccccc21 [Example 7]: 4%
C=CCN1CCN(C(=O)c2ccc3n2Cc2ccccc2N(C(=O)c2ccc(C4CCCCC4)cc2)C3)CC1 [Example 43]: 1%
O=C(NCCN1CCCCC1)c1ccc2n1Cc1ccccc1N(C(=O)c1ccc(C3CCCCC3)cc1)C2 [Example 37]: 23%

Could you now look at the following molecule, please?
What does the record list as inhibition at 0.1 µM for CN1CCC(N(C)C(=O)c2ccc3n2Cc2ccccc2N(C(=O)c2ccc(C4CCCCC4)cc2)C3)CC1 [Example 39] ?
43%

====

target: human V2 vasopressin receptor subtype (Homo sapiens, UniProt P30518); test: Vasopressin binding in CHO cell membranes expressing human vasopressin V2 subtype receptors; conditions: 100 nM, [3H]arginine vasopressin
Sequence (P30518 whole entry): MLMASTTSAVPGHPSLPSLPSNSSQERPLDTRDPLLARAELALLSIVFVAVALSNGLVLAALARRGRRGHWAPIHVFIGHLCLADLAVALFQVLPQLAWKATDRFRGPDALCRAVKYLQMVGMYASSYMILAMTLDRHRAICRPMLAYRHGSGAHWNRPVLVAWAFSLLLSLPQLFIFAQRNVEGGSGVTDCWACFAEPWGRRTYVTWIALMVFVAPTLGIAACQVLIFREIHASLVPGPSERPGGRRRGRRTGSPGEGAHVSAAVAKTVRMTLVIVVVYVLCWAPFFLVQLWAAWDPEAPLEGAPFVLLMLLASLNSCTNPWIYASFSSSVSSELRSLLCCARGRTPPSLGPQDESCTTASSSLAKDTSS
inhibition at 0.1 µM by entry:
State the value, then name its unit.

These recorded examples may help you get a feel for the data.
O=C(c1ccc(C2CCCCC2)cc1)N1Cc2ccc(C(=O)C(Cl)(Cl)Cl)n2Cc2ccccc21: 10%
CN(C)CCCN1CCN(C(=O)c2ccc3n2Cc2ccccc2N(C(=O)c2ccc(C4CCCCC4)cc2)C3)CC1: 10%

Please turn your attention to the following entry.
Given the entry O=C(NCCc1ccccn1)c1ccc2n1Cc1ccccc1N(C(=O)c1ccc(C3CCCCC3)cc1)C2 , report its measured inhibition at 0.1 µM.
10%

====

Below is a list of entries, each paired with its recorded inhibition at 0.1 µM value.
molecular target: human V2 vasopressin receptor subtype (Homo sapiens); experiment: Vasopressin binding in CHO cell membranes expressing human vasopressin V2 subtype receptors; details: 100 nM, [3H]arginine vasopressin
API: value field is a number in %; no unit string.

# count of solved cases: 4
CN(C)CCN1CCN(C(=O)c2ccc3n2Cc2ccccc2N(C(=O)c2ccc(C4CCCCC4)cc2)C3)CC1: 6
CN(N)C(=O)c1ccc2n1Cc1ccccc1N(C(=O)c1ccc(C3CCCCC3)cc1)C2: 13
O=C(NCCCn1ccnc1)c1ccc2n1Cc1ccccc1N(C(=O)c1ccc(C3CCCCC3)cc1)C2: 1
C=CCN1CCN(C(=O)c2ccc3n2Cc2ccccc2N(C(=O)c2ccc(C4CCCCC4)cc2)C3)CC1: 8

Please give the measured inhibition at 0.1 µM for this compound: O=C(NCc1cccnc1)c1ccc2n1Cc1ccccc1N(C(=O)c1ccc(C3CCCCC3)cc1)C2
7

What do you get for CN(C)/C=C/C(=O)c1ccc2n1Cc1ccccc1N(C(=O)c1ccc(C3CCCCC3)cc1)C2 ?
11

Now give it for CN1CCCN(C(=O)c2ccc3n2Cc2ccccc2N(C(=O)c2ccc(C4CCCCC4)cc2)C3)CC1 too.
15

Check CC(C)(C)c1ccc(C(=O)c2ccc3n2Cc2ccccc2N(C(=O)c2ccc(C4CCCCC4)cc2)C3)cc1 too.
2

====

molecular target: human vasopressin V1a receptor subtype (Homo sapiens); test: Vasopressin binding in CHO cell membranes expressing human vasopressin V1a subtype receptors; conditions: 100 nM, [3H]Manning ligand
Sequence (P37288 whole entry): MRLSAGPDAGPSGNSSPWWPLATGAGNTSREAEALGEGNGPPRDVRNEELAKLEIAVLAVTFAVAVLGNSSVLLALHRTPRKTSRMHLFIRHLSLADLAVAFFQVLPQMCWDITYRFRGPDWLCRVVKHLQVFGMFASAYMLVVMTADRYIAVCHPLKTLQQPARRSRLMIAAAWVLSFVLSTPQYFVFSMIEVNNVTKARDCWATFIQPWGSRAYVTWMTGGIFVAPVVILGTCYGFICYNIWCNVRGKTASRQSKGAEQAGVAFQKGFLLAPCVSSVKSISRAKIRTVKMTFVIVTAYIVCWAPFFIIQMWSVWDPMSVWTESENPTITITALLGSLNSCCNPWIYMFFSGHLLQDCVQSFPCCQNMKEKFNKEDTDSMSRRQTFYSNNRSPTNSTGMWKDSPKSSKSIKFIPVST
value-type: inhibition at 0.1 µM
// unit must come after the numeric part

Below, each entry is followed by its recorded inhibition at 0.1 µM result.
COC(=O)c1ccc2c(c1)N(C(=O)c1ccc(C3CCCCC3)cc1)Cc1ccc(C(=O)N3CCN(C)CC3)n1C2.Cl [Example 1, hydrochloride salt]: -7%
O=C(NCc1ccccn1)c1ccc2n1Cc1ccccc1N(C(=O)c1ccc(C3CCCCC3)cc1)C2 [Example 50]: 3%

Lab note: next compound to report on.
Need inhibition at 0.1 µM of CC(C)N1CCN(C(=O)c2ccc3n2Cc2ccccc2N(C(=O)c2ccc(C4CCCCC4)cc2)C3)CC1 [Example 44] , thanks.
1%

====

Measured inhibition at 0.1 µM of individual entries
molecular target: human V2 vasopressin receptor subtype (Homo sapiens, UniProt P30518); experiment: Vasopressin binding in CHO cell membranes expressing human vasopressin V2 subtype receptors; conditions: 100 nM, [3H]arginine vasopressin
Please give a number only; it is taken to be in %.

CN(CCc1ccccn1)C(=O)c1ccc2n1Cc1ccccc1N(C(=O)c1ccc(C3CCCCC3)cc1)C2: 8
COC(=O)c1ccc2c(c1)N(C(=O)c1ccc(C3CCCCC3)cc1)Cc1ccc(C(=O)N3CCN(C)CC3)n1C2.Cl [Example 1, hydrochloride salt]: 3
O=C(NCc1ccncc1)c1ccc2n1Cc1ccccc1N(C(=O)c1ccc(C3CCCCC3)cc1)C2: 2
CC(C)N1CCN(C(=O)c2ccc3n2Cc2ccccc2N(C(=O)c2ccc(C4CCCCC4)cc2)C3)CC1: 1

Any idea what inhibition at 0.1 µM came out for O=C(c1ccc(C2CCCCC2)cc1)N1Cc2ccc(C(=O)n3ccnc3)n2Cc2ccccc21 on human V2 vasopressin receptor subtype (Homo sapiens, UniProt P30518)?
-2

And what about the molecule CN(C)CCN(C)C(=O)c1ccc2n1Cc1ccccc1N(C(=O)c1ccc(C3CCCCC3)cc1)C2 ?
17
